Source: the supplement of paper PMC6757056

B1: library; a variant is named by its letters at N, in order (parent)
chain: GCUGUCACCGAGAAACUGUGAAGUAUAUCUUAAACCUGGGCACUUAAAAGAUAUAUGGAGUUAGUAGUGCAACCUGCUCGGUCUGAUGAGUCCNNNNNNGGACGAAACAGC

Variants of: B1
Experiment: normalized RNA/DNA level without ligand (relative to sTRSVctl = 100) (log10 (% of sTRSVctl)); HEK293T; ligand: cyclic di-GMP (c-di-GMP-II aptamer); higher = less ribozyme self-cleavage, higher mRNA level
Settings: reporter: mCherry (pCS4076), ligand present: no
Readout label: normalized RNA/DNA level without ligand (log10)

{"Primary sequence": "GCUGUCACCGAGAAACUGUGAAGUAUAUCUUAAACCUGGGCACUUAAAAGAUAUAUGGAGUUAGUAGUGCAACCUGCUCGGUCUGAUGAGUCCGGUUCAGGACGAAACAGC", "Result": 1.6}
{"Primary sequence": "GCUGUCACCGAGAAACUGUGAAGUAUAUCUUAAACCUGGGCACUUAAAAGAUAUAUGGAGUUAGUAGUGCAACCUGCUCGGUCUGAUGAGUCCCUGCGCGGACGAAACAGC", "Result": 1.82}
{"Primary sequence": "GCUGUCACCGAGAAACUGUGAAGUAUAUCUUAAACCUGGGCACUUAAAAGAUAUAUGGAGUUAGUAGUGCAACCUGCUCGGUCUGAUGAGUCCUGUGGCGGACGAAACAGC", "Result": 1.74}
{"Primary sequence": "GCUGUCACCGAGAAACUGUGAAGUAUAUCUUAAACCUGGGCACUUAAAAGAUAUAUGGAGUUAGUAGUGCAACCUGCUCGGUCUGAUGAGUCCCGAAGCGGACGAAACAGC", "Result": 1.7}
{"Primary sequence": "GCUGUCACCGAGAAACUGUGAAGUAUAUCUUAAACCUGGGCACUUAAAAGAUAUAUGGAGUUAGUAGUGCAACCUGCUCGGUCUGAUGAGUCCGAGUAUGGACGAAACAGC", "Result": 1.79}
{"Primary sequence": "GCUGUCACCGAGAAACUGUGAAGUAUAUCUUAAACCUGGGCACUUAAAAGAUAUAUGGAGUUAGUAGUGCAACCUGCUCGGUCUGAUGAGUCCCUCUUGGGACGAAACAGC", "Result": 1.73}
{"Primary sequence": "GCUGUCACCGAGAAACUGUGAAGUAUAUCUUAAACCUGGGCACUUAAAAGAUAUAUGGAGUUAGUAGUGCAACCUGCUCGGUCUGAUGAGUCCAUAGCUGGACGAAACAGC", "Result": 1.68}
{"Primary sequence": "GCUGUCACCGAGAAACUGUGAAGUAUAUCUUAAACCUGGGCACUUAAAAGAUAUAUGGAGUUAGUAGUGCAACCUGCUCGGUCUGAUGAGUCCCGGGAAGGACGAAACAGC", "Result": 1.33}
{"Primary sequence": "GCUGUCACCGAGAAACUGUGAAGUAUAUCUUAAACCUGGGCACUUAAAAGAUAUAUGGAGUUAGUAGUGCAACCUGCUCGGUCUGAUGAGUCCUCUGAUGGACGAAACAGC", "Result": 1.6}
{"Primary sequence": "GCUGUCACCGAGAAACUGUGAAGUAUAUCUUAAACCUGGGCACUUAAAAGAUAUAUGGAGUUAGUAGUGCAACCUGCUCGGUCUGAUGAGUCCCAAUGUGGACGAAACAGC", "Result": 1.75}
{"Primary sequence": "GCUGUCACCGAGAAACUGUGAAGUAUAUCUUAAACCUGGGCACUUAAAAGAUAUAUGGAGUUAGUAGUGCAACCUGCUCGGUCUGAUGAGUCCAAUCGAGGACGAAACAGC", "Result": 1.49}
{"Primary sequence": "GCUGUCACCGAGAAACUGUGAAGUAUAUCUUAAACCUGGGCACUUAAAAGAUAUAUGGAGUUAGUAGUGCAACCUGCUCGGUCUGAUGAGUCCCGGCAUGGACGAAACAGC", "Result": 1.49}
{"Primary sequence": "GCUGUCACCGAGAAACUGUGAAGUAUAUCUUAAACCUGGGCACUUAAAAGAUAUAUGGAGUUAGUAGUGCAACCUGCUCGGUCUGAUGAGUCCCCUUCGGGACGAAACAGC", "Result": 1.74}
{"Primary sequence": "GCUGUCACCGAGAAACUGUGAAGUAUAUCUUAAACCUGGGCACUUAAAAGAUAUAUGGAGUUAGUAGUGCAACCUGCUCGGUCUGAUGAGUCCGUUGCCGGACGAAACAGC", "Result": 1.76}
{"Primary sequence": "GCUGUCACCGAGAAACUGUGAAGUAUAUCUUAAACCUGGGCACUUAAAAGAUAUAUGGAGUUAGUAGUGCAACCUGCUCGGUCUGAUGAGUCCUAUCCCGGACGAAACAGC", "Result": 1.83}
{"Primary sequence": "GCUGUCACCGAGAAACUGUGAAGUAUAUCUUAAACCUGGGCACUUAAAAGAUAUAUGGAGUUAGUAGUGCAACCUGCUCGGUCUGAUGAGUCCAAGAGUGGACGAAACAGC", "Result": 1.5}
{"Primary sequence": "GCUGUCACCGAGAAACUGUGAAGUAUAUCUUAAACCUGGGCACUUAAAAGAUAUAUGGAGUUAGUAGUGCAACCUGCUCGGUCUGAUGAGUCCGCGCAUGGACGAAACAGC", "Result": 1.66}
{"Primary sequence": "GCUGUCACCGAGAAACUGUGAAGUAUAUCUUAAACCUGGGCACUUAAAAGAUAUAUGGAGUUAGUAGUGCAACCUGCUCGGUCUGAUGAGUCCGCGCUAGGACGAAACAGC", "Result": 1.65}
{"Primary sequence": "GCUGUCACCGAGAAACUGUGAAGUAUAUCUUAAACCUGGGCACUUAAAAGAUAUAUGGAGUUAGUAGUGCAACCUGCUCGGUCUGAUGAGUCCGUACGUGGACGAAACAGC", "Result": 1.63}
{"Primary sequence": "GCUGUCACCGAGAAACUGUGAAGUAUAUCUUAAACCUGGGCACUUAAAAGAUAUAUGGAGUUAGUAGUGCAACCUGCUCGGUCUGAUGAGUCCCCGCAUGGACGAAACAGC", "Result": 1.6}
{"Primary sequence": "GCUGUCACCGAGAAACUGUGAAGUAUAUCUUAAACCUGGGCACUUAAAAGAUAUAUGGAGUUAGUAGUGCAACCUGCUCGGUCUGAUGAGUCCGGCCAUGGACGAAACAGC", "Result": 1.73}
{"Primary sequence": "GCUGUCACCGAGAAACUGUGAAGUAUAUCUUAAACCUGGGCACUUAAAAGAUAUAUGGAGUUAGUAGUGCAACCUGCUCGGUCUGAUGAGUCCAUUCACGGACGAAACAGC", "Result": 1.76}
{"Primary sequence": "GCUGUCACCGAGAAACUGUGAAGUAUAUCUUAAACCUGGGCACUUAAAAGAUAUAUGGAGUUAGUAGUGCAACCUGCUCGGUCUGAUGAGUCCUAAAAGGGACGAAACAGC", "Result": 1.69}
{"Primary sequence": "GCUGUCACCGAGAAACUGUGAAGUAUAUCUUAAACCUGGGCACUUAAAAGAUAUAUGGAGUUAGUAGUGCAACCUGCUCGGUCUGAUGAGUCCGCAUAUGGACGAAACAGC", "Result": 1.53}
{"Primary sequence": "GCUGUCACCGAGAAACUGUGAAGUAUAUCUUAAACCUGGGCACUUAAAAGAUAUAUGGAGUUAGUAGUGCAACCUGCUCGGUCUGAUGAGUCCCACUUUGGACGAAACAGC", "Result": 1.51}
{"Primary sequence": "GCUGUCACCGAGAAACUGUGAAGUAUAUCUUAAACCUGGGCACUUAAAAGAUAUAUGGAGUUAGUAGUGCAACCUGCUCGGUCUGAUGAGUCCCGGGAGGGACGAAACAGC", "Result": 1.68}
{"Primary sequence": "GCUGUCACCGAGAAACUGUGAAGUAUAUCUUAAACCUGGGCACUUAAAAGAUAUAUGGAGUUAGUAGUGCAACCUGCUCGGUCUGAUGAGUCCAUUCCAGGACGAAACAGC", "Result": 1.7}
{"Primary sequence": "GCUGUCACCGAGAAACUGUGAAGUAUAUCUUAAACCUGGGCACUUAAAAGAUAUAUGGAGUUAGUAGUGCAACCUGCUCGGUCUGAUGAGUCCUGAGGCGGACGAAACAGC", "Result": 1.74}
{"Primary sequence": "GCUGUCACCGAGAAACUGUGAAGUAUAUCUUAAACCUGGGCACUUAAAAGAUAUAUGGAGUUAGUAGUGCAACCUGCUCGGUCUGAUGAGUCCUGCGCUGGACGAAACAGC", "Result": 1.72}
{"Primary sequence": "GCUGUCACCGAGAAACUGUGAAGUAUAUCUUAAACCUGGGCACUUAAAAGAUAUAUGGAGUUAGUAGUGCAACCUGCUCGGUCUGAUGAGUCCAAUAGAGGACGAAACAGC", "Result": 1.39}
{"Primary sequence": "GCUGUCACCGAGAAACUGUGAAGUAUAUCUUAAACCUGGGCACUUAAAAGAUAUAUGGAGUUAGUAGUGCAACCUGCUCGGUCUGAUGAGUCCCUCCUAGGACGAAACAGC", "Result": 1.44}
{"Primary sequence": "GCUGUCACCGAGAAACUGUGAAGUAUAUCUUAAACCUGGGCACUUAAAAGAUAUAUGGAGUUAGUAGUGCAACCUGCUCGGUCUGAUGAGUCCACCCGCGGACGAAACAGC", "Result": 1.75}
{"Primary sequence": "GCUGUCACCGAGAAACUGUGAAGUAUAUCUUAAACCUGGGCACUUAAAAGAUAUAUGGAGUUAGUAGUGCAACCUGCUCGGUCUGAUGAGUCCCGGGUUGGACGAAACAGC", "Result": 1.75}
{"Primary sequence": "GCUGUCACCGAGAAACUGUGAAGUAUAUCUUAAACCUGGGCACUUAAAAGAUAUAUGGAGUUAGUAGUGCAACCUGCUCGGUCUGAUGAGUCCUUUAGGGGACGAAACAGC", "Result": 1.87}
{"Primary sequence": "GCUGUCACCGAGAAACUGUGAAGUAUAUCUUAAACCUGGGCACUUAAAAGAUAUAUGGAGUUAGUAGUGCAACCUGCUCGGUCUGAUGAGUCCGGUAAGGGACGAAACAGC", "Result": 1.49}
{"Primary sequence": "GCUGUCACCGAGAAACUGUGAAGUAUAUCUUAAACCUGGGCACUUAAAAGAUAUAUGGAGUUAGUAGUGCAACCUGCUCGGUCUGAUGAGUCCGUGAGUGGACGAAACAGC", "Result": 1.59}
{"Primary sequence": "GCUGUCACCGAGAAACUGUGAAGUAUAUCUUAAACCUGGGCACUUAAAAGAUAUAUGGAGUUAGUAGUGCAACCUGCUCGGUCUGAUGAGUCCACGAUGGGACGAAACAGC", "Result": 1.55}
